growth inhibition overview
- test.details: NCI Yeast Anticancer Drug Screen. Data for the rad50 strain (AID 155);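 note: 0% = growth of vehicle-only cultures of the same strain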
- condition.notes: S. cerevisiae rad50 strain growth inhibition, active compounds read high; at 50.0 µM unless noted
This is part of a sample that, as a whole, favours compounds with a hit. Of some 79,000 tested, about 15% had one in any assay.
Dear colleague, please return just the value in %, with no unit written.

Check out these entries, answers already filled in.
{"compound": "Cc1ccc(C2=NN(c3ccccc3)C(c3ccccc3)C2NC2CCCCC2)cc1 (configuration not stated)", "units.symbol": "%", "growth inhibition": 41.1}
{"compound": "O=C1[C@H]2ON(c3ccccc3)C(c3ccccc3)[C@H]2C(=O)N1c1ccc(Cc2ccc(N3C(=O)[C@@H]4ON(c5ccccc5)C(c5ccccc5)[C@@H]4C3=O)cc2)cc1 (some centres not stated)", "units.symbol": "%", "growth inhibition": 3.1}
{"compound": "CC1=CC(=C2C=C(C)C(=O)C(C)=C2)C=C(C)C1=O", "units.symbol": "%", "growth inhibition": 9.85}

Looking up "CCNC(=O)c1ccccc1N=NN(C)C" , I see its growth inhibition listed as -1.15

Lab book: growth inhibition of O=c1[nH]cnc2c1ncn2C1CCCO1 (configuration not stated) noted as -14.2

Just so you know, measured growth inhibition for "Cc1noc(NC(=O)Nc2ccccc2F)c1C#N" came out at -24.3

Memo: "CC(C)(C)C(=O)/C(=C/C(=O)O)C(C)(C)C" , reported growth inhibition: -0.1

Entry c1cncc(C2N3CCCCC3[C@@H]3c4[nH]c5ccccc5c4CCN23)c1 (some centres not stated) — recorded growth inhibition = -26.6

Please fill in: growth inhibition reported for "CC[N+]1(CN2CCCCC2)CCCCC1" = 18.5

What the record says about CC1(CO)C2CCC(CC2)C1CO (configuration not stated) : growth inhibition is -3

In plain terms, O=C1OC2(CCCCC2)OC1c1ccccc1 (configuration not stated) has a documented growth inhibition of 23.4

Entry "Cc1ccc(S(=O)(=O)CBr)cc1" , growth inhibition reported as 5.35

* * *

- test.details: NCI Yeast Anticancer Drug Screen. Data for the sgs1 mgt1 strain (AID 161);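 note: 0% = growth of cultures given vehicle only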
- condition.notes: S. cerevisiae sgs1 mgt1 strain; at 50.0 µM unless noted
This is part of a sample that, as a whole, favours compounds with a hit. Of some 79,000 tested, about 15% had one in any assay. Calls of active or inactive are those of the source. Cut-off read from the data, not from the text of the source: active = growth inhibition above about 70%; inactive = the rest.
Outcome (select one): Y (active), N (inactive)

{"molecule": "O=C(O)C1Oc2cc3ccccc3cc2O1", "assigned.label": "N"}
{"molecule": "C=C1CC2CC[C@@]34C[C@@H]5O[C@@H]6C(O[C@H]7CC[C@H](CC(=O)OC8[C@@H](C)C9OC%10C[C@]%11(C[C@@H]%12O[C@@]%13(C[C@@H](C)[C@@H]%12O%11)C[C@H](C)[C@@H]%11OC%12CC(C(O)CO)OC%12C[C@@H]%11O%13)OC%10CC9O[C@H]8C[C@H]8O[C@@H](CC[C@@H]1O2)C[C@@H](C)C8=C)O[C@@H]7[C@@H]6O3)C5O4 (stereo partly specified)", "assigned.label": "Y"}
{"molecule": "NC(C(=O)O)c1ccc(CBr)cc1 (stereo unspecified)", "assigned.label": "N"}

Query: Recorded test outcome, item "COc1ccc(/C(Cc2ccccc2)=N/Nc2ccc([N+](=O)[O-])c([N+](=O)[O-])c2)cc1"
Result: N

Query: # fetch the recorded call for "CNc1cc([N+](=O)[O-])ccc1Br" here
Result: N

Query: For "O=C1OCCOCCOCCOCCOC(=O)c2cccc1n2" , which call appears in the assay record?
Result: N
